Molecular target: HLA-A*02:01 (Homo sapiens, UniProt P04439, D140Y/D185E/D98H/E176V/E277Q/G131W/G231S/I119V/I121R/I166T/I218V/L300P/L318F/N151K/N90K/P208A/P217A/Q86G/Q94H/R138H/R169H/T345S)
Assay: MHC binding assay: UV-ligand exchange with beta2m ELISA (exchange yield)
Settings: binding to HLA-A*02:01, β2m ELISA
observed_property: Peptide exchange (MHC class I binding score, peptide exchange yield)

Study these solved cases before continuing.
>>> value_observed("402 (VLFSGALLGL; listed as Homo sapiens) [compound 402]")
"“++” (≥20% = ++)"
>>> value_observed("455 (SLLKEPQKVQL; listed as Homo sapiens) [compound 455]")
"“++” (≥20% = ++)"
>>> value_observed("357 (SMHDLVLQV; listed as Homo sapiens) [compound 357]")
"“+++” (≥50 = +++)"
>>> value_observed("263 (LLVSNLDFGV; listed as Homo sapiens) [compound 263]")
"“+++” (≥50 = +++)"
>>> value_observed("53 (KMIETDILQKV; listed as Homo sapiens) [compound 53]")
"“++++” (≥75% = ++++)"

Challenge: Write down Peptide exchange (MHC class I binding score, peptide exchange yield) measured for item 635 (SLDSTLHAV; listed as Homo sapiens) [compound 635]
Response given: “+++” (≥50 = +++)

Challenge: Write down Peptide exchange (MHC class I binding score, peptide exchange yield) measured for item 2 (SLLEADPFL; listed as Homo sapiens) [compound 2]
Response given: “+++” (≥50 = +++)

Challenge: Write down Peptide exchange (MHC class I binding score, peptide exchange yield) measured for item 370 (SLLQDLVSV; listed as Homo sapiens) [compound 370]
Response given: “+++” (≥50 = +++)

Challenge: Write down Peptide exchange (MHC class I binding score, peptide exchange yield) measured for item 371 (FLQAHLHTA; listed as Homo sapiens) [compound 371]
Response given: “++++” (≥75% = ++++)

Challenge: Write down Peptide exchange (MHC class I binding score, peptide exchange yield) measured for item 579 (NLMEMVAQL; listed as Homo sapiens) [compound 579]
Response given: “++” (≥20% = ++)
